target or test system: Recombinant human BRD4 containing dual bromodomains (BRD4-BD12 (1-477)) (Homo sapiens)
Construct: Recombinant human BRD4 containing dual bromodomains (BRD4-BD12 (1-477))
assay explanation: BRD4 Alphascreen binding assay
Listing: IC50 of selected compounds

Some compounds with recorded IC50:
Cc1noc(C)c1-c1cnc2c(-c3ccc(F)cc3F)cn(-c3ccc(C(=O)O)cc3OC(F)(F)F)c2c1 1 to 8 µM
CCOc1nc(C(=O)O)cc(C)c1-c1cn(-c2ccc(F)cc2F)c2ncc(-c3c(C)noc3C)cc12 1 to 8 µM
CCOc1cc(C(=O)O)nc(OCC)c1-c1cn(-c2cccnc2)c2ncc(-c3c(C)noc3C)cc12 1 to 8 µM
Cc1noc(C)c1-c1cnc2c(c1)c(-c1c(F)cc(C(=O)O)cc1OC1CC1)cn2C(C1CC1)C1CC1 1 to 8 µM
Cc1noc(C)c1-c1cnc2c(c1)c(-c1cccc(C(=O)O)c1)cn2Cc1ccccc1 1 to 8 µM
Cc1noc(C)c1-c1cnc2c(-c3ccccc3)cn(-c3c(OCC(F)(F)F)cc(C(=O)O)cc3OCC(F)(F)F)c2c1 1 to 8 µM
Cc1noc(C)c1-c1cnc2c(c1)c(-c1c(Cl)cc(C(=O)O)cc1OC(C)C)cn2C(C1CC1)C1CC1 1 to 8 µM
CCOc1cc(C(=O)O)c(F)cc1-c1cn(C2CCN(C(=O)OC(C)(C)C)CC2)c2ncc(-c3c(C)noc3C)cc12 8 to 1000 µM

Enquiry: For the compound "Cc1cc(C#N)ccc1-n1cc(-c2ccc(C(=O)O)cc2OC(F)(F)F)c2cc(-c3c(C)noc3C)cnc21" , give its reported IC50.
Return: 1 to 8 µM

Enquiry: For the compound "Cc1noc(C)c1-c1cnc2c(C(=O)c3cccc(OC(F)F)c3)cn(-c3c(Cl)cc(C(=O)O)cc3Cl)c2c1" , give its reported IC50.
Return: 1 to 8 µM

Enquiry: For the compound "CCOc1cc(C(=O)O)ccc1-c1cn([C@@H](C)c2ccccn2)c2ncc(-c3c(C)noc3C)cc12" , give its reported IC50.
Return: 8 to 1000 µM

Enquiry: For the compound "Cc1noc(C)c1-c1cnc2c(Cc3cccc(Cl)c3)cn(-c3ccnc(C(=O)O)c3)c2c1" , give its reported IC50.
Return: 0.0001 to 1 µM
